Here the recorded melting point is given for each entry.

Consider the worked cases shown below.
Compound: CC(C)c1cccc(C(C)C)c1NC(=O)CNC(c1ccccc1)c1cccc(C(=O)O)c1 (stereo not given)
melting point: 190 to 191 °C
--
Compound: Cc1nnn(CC(C)n2nnc3cc4c(=O)n(C5CC5)nnc4cc3c2=O)n1 (stereo not given)
melting point: 157 to 160 °C
--
Compound: CCCCCNc1c(C(=O)OCC)cnc2cn[nH]c12
melting point: 153 to 155 °C
--
Compound: Clc1ccc(-c2[nH]c3c(Cl)cc(Cl)cc3c2Cl)cc1
melting point: 148 to 149 °C

Attention now turns to another entry.
Ask | Return reported melting point. Input compound: Cc1cccc(-n2nc3c(c2OS(=O)(=O)C(F)(F)F)CCC3)n1
Reply | 146 to 148 °C
